tested on: U2OS; experiment: Multiplex assay against U2OS; assay type: toxicity, cell-based; conditions: human, 12 h, 1 µM, compound concentration 1 uM, replicate 2
READOUT_NAME: Population Pyknosed Nuclei (%)
Answer with a number only, understood to be in %.

Would you mind telling me what Population Pyknosed Nuclei (%) value was observed for C[C@@H]1C[C@H]2[C@@H]3CCC4=CC(=O)C=C[C@]4(C)[C@@]3(F)[C@@H](O)C[C@]2(C)[C@@]1(O)C(=O)CO [DEXAMETHASONE] ?
4

Population Pyknosed Nuclei (%) for `COc1c(C)cc(NC(=O)c2nn(Cc3ccc(F)cc3)c3c2CN(C(=O)c2ccc[nH]2)C[C@]3(C)C(N)=O)cc1C` ?
6

Tell me the measured Population Pyknosed Nuclei (%) of N[C@@]1(C(=O)O)CO[C@H]2[C@H](C(=O)O)[C@H]21 [LY-379268] , please.
2

Bench note: what Population Pyknosed Nuclei (%) did COc1cc(NC(=O)CCN2CCC(OC(=O)Nc3ccccc3-c3ccccc3)CC2)c(Cl)cc1CNC[C@H](O)c1ccc(O)c2[nH]c(=O)ccc12 [BATEFENTEROL] show?
7

What does the data say about its Population Pyknosed Nuclei (%)? Entry: Cc1ccc(F)cc1C(=O)Nc1ccc(C(=O)N2Cc3cccn3Cc3ccccc32)c(Cl)c1 [LIXIVAPTAN]
8

So what does the record say about Population Pyknosed Nuclei (%) for Cc1ccc(C(C)(O)c2nc3ccccc3s2)c(C)c1 (stereo unspecified) ?
3

Field request: Population Pyknosed Nuclei (%) | item: CC(=O)NCCc1c(Cc2ccccc2)[nH]c2ccccc12 [LUZINDOLE]
3

Requested read-out: Population Pyknosed Nuclei (%). Entry: CC(C)(C)c1ccc(S(=O)(=O)Nc2ccc(Cl)cc2C(=O)c2cc[n+]([O-])cc2)cc1 [VERCIRNON]
5

Entry under review: CNC[C@H](O)c1ccc(O)c(O)c1 [EPINEPHRINE] . Reported Population Pyknosed Nuclei (%)?
5

What value of Population Pyknosed Nuclei (%) has been recorded for this entry: c1cc(OCCCN2CCCCC2)ccc1CN1CCCCC1 [JNJ-5207852]
11

Please give the measured Population Pyknosed Nuclei (%) for this compound: CCNC1(C(N)=O)CCN(c2ncnc3c2nc(-c2ccccc2Cl)n3-c2ccc(Cl)cc2)CC1 [OTENABANT]
7

# query: Population Pyknosed Nuclei (%) of entry `CC[C@H]1OC(=O)[C@H](C)[C@@H](O[C@H]2C[C@@](C)(OC)[C@@H](O)[C@H](C)O2)[C@H](C)[C@@H](O[C@@H]2O[C@H](C)C[C@H](N(C)C)[C@H]2O)[C@@]2(C)CC(C)=C(O2)[C@H](C)[C@@H](O)[C@]1(C)O`
14

Report Population Pyknosed Nuclei (%) for N#Cc1c(N)nc(SCc2csc(-c3ccc(Cl)cc3)n2)c(C#N)c1-c1ccc(OCCO)cc1 [CAPADENOSON] please.
6

Recorded Population Pyknosed Nuclei (%) of C[C@H](NC(=O)c1c(C(F)F)nn(C)c1Oc1cccc(C(F)(F)F)c1)c1ccc(C(=O)O)cc1 [PALUPIPRANT] , please.
9

// returns reported Population Pyknosed Nuclei (%) for input CCCN1CCC[C@@H]2Cc3n[nH]cc3C[C@H]21.Cl [QUINPIROLE HYDROCHLORIDE]
11

Query: Population Pyknosed Nuclei (%); subject: `Cc1nc2ccc(Oc3ccc(F)cc3)cc2c(=O)n1C[C@H]1CCCN(C(C)C)C1.Cl`
4

* * *

tested on: Fibroblast; experiment: Multiplex assay against human fibroblast; assay type: toxicity, cell-based; details: 24 h, 1 µM, compound concentration 1 uM, replicate 1
Assign Population Normal (%) to each entry below.
API: value field is a number in %; no unit string.

For Fibroblast, provide Population Normal (%) of CCCN1CCC[C@@H]2Cc3n[nH]cc3C[C@H]21.Cl [QUINPIROLE HYDROCHLORIDE] please.
98

Short answer please: Population Normal (%), Fibroblast, entry c1cc(OCCCN2CCCCC2)ccc1CN1CCCCC1 [JNJ-5207852]
97

Give Fibroblast Population Normal (%) for CCNC1(C(N)=O)CCN(c2ncnc3c2nc(-c2ccccc2Cl)n3-c2ccc(Cl)cc2)CC1 [OTENABANT]
95

Notebook: pull reported Population Normal (%) for Fibroblast, entry CNC[C@H](O)c1ccc(O)c(O)c1 [EPINEPHRINE]
99

Which Population Normal (%) is reported with Fibroblast for this entry: `Oc1c(CN2CCN(c3ccccn3)CC2)cc(Cl)c2cccnc12` ?
96

Field: Population Normal (%) (Fibroblast). Entry: `CCCn1c(=O)c2[nH]c(C3CCCC3)nc2n(CCC)c1=O`
97

Form field: Population Normal (%) recorded for `Cc1nc2ccc(Oc3ccc(F)cc3)cc2c(=O)n1C[C@H]1CCCN(C(C)C)C1.Cl` with Fibroblast (enter value)
96

Which Population Normal (%) is reported with Fibroblast for this entry: CC1(COc2ccc3c(c2)ncn3-c2ccc3cccc(N4CCC(N)CC4)c3n2)COC1 [CRENOLANIB] ?
99

Provide value of Population Normal (%) for this record tested with Fibroblast: N[C@@]1(C(=O)O)CO[C@H]2[C@H](C(=O)O)[C@H]21 [LY-379268]
99

Give Fibroblast Population Normal (%) for Cl.Clc1ccc2nsnc2c1NC1=NCCN1 [TIZANIDINE HYDROCHLORIDE]
97

Population Normal (%) of N#Cc1c(N)nc(SCc2csc(-c3ccc(Cl)cc3)n2)c(C#N)c1-c1ccc(OCCO)cc1 [CAPADENOSON] on Fibroblast?
98

Any idea what Population Normal (%) came out for Cc1ccc(F)cc1C(=O)Nc1ccc(C(=O)N2Cc3cccn3Cc3ccccc32)c(Cl)c1 [LIXIVAPTAN] on Fibroblast?
98

# get_value(readout= Population Normal (%), system= Fibroblast) for Cc1ccccc1C(=O)Nc1ccc(C(=O)N2CCCC(N(C)C)c3ccccc32)cc1.Cl (stereo unspecified)
98

// map C[C@@H]1C[C@H]2[C@@H]3CCC4=CC(=O)C=C[C@]4(C)[C@@]3(F)[C@@H](O)C[C@]2(C)[C@@]1(O)C(=O)CO [DEXAMETHASONE] to recorded Population Normal (%) (system: Fibroblast)
94

Requested read-out Population Normal (%), target or system Fibroblast, entry `CN1CCN(c2nc3cc(C(F)(F)F)ccc3n3cccc23)CC1.O=C(O)/C=C\C(=O)O.O=C(O)/C=C\C(=O)O`
98

Fibroblast / Population Normal (%) / CN1CCN2c3ncccc3Cc3ccccc3C2C1 (stereo unspecified) [MIRTAZAPINE] : value?
94

What is its Population Normal (%) for Fibroblast? Entry: O=S(=O)(c1ccccc1)c1cnc2c(N3CCNCC3)cccc2c1 [INTEPIRDINE]
94

Write down the reported Population Normal (%) of `CN(C)CCCc1cc(C(=O)Nc2ccc(-c3ccncc3)cc2)ccc1O.Cl.Cl` , test system: Fibroblast.
98

Notebook: pull reported Population Normal (%) for Fibroblast, entry `O=C(NCCO)c1cccc(-c2cc(Nc3ccc(OC(F)(F)F)cc3)ncn2)c1`
98

Which Population Normal (%) is reported with Fibroblast for this entry: C[C@H]1[C@H]2CC[C@H]3[C@@H]4CC=C5C[C@@H](N(C)C)CC[C@]5(C)[C@H]4CC[C@]23CN1C [CONESSINE] ?
97

Requested read-out Population Normal (%), target or system Fibroblast, entry COc1cc(NC(=O)CCN2CCC(OC(=O)Nc3ccccc3-c3ccccc3)CC2)c(Cl)cc1CNC[C@H](O)c1ccc(O)c2[nH]c(=O)ccc12 [BATEFENTEROL]
98

* * *

Please provide measured Population Membrane Permeable-Phenotype (%) for the entries that follow.
system: HEK-293T; assay: Multiplex assay against HEK293T; type: toxicity, cell-based; conditions: human, 24 h, 1 µM, compound concentration 1 uM, replicate 1
Dear colleague, please return just the value in %, with no unit written.

Quick one: Population Membrane Permeable-Phenotype (%) of `c1cc(OCCCN2CCCCC2)ccc1CN1CCCCC1` ?
1

Recorded Population Membrane Permeable-Phenotype (%) of `CCCn1c(=O)c2[nH]c(C3CCCC3)nc2n(CCC)c1=O` , please.
1

Give the measured Population Membrane Permeable-Phenotype (%) of `CN(C)c1ccnc2sc3c(=O)n(N4CCCCCC4)cnc3c12` .
1

If you can, please state the reported Population Membrane Permeable-Phenotype (%) value of `CCOc1c2c(c(OCC)c3ncccc13)CN(c1ccc(CS(=O)(=O)NC(=O)Cc3ccccc3OC)cc1C)C2=O` .
0

* * *

Please go through the items and note down their Population Mitochondria Different-Phenotype (%).
test system: U2OS; test: Multiplex assay against U2OS; type: toxicity, cell-based; conditions: human, 12 h, 1 µM, compound concentration 1 uM, replicate 1
I only need the number, in %, no unit after it.

If you can, please state the reported Population Mitochondria Different-Phenotype (%) value of c1cc(OCCCN2CCCCC2)ccc1CN1CCCCC1 [JNJ-5207852] .
3

Which Population Mitochondria Different-Phenotype (%) reading was recorded for the molecule Cc1ccc(/C(=C\CN2CCCC2)c2ccccn2)cc1 [TRIPROLIDINE] ?
2

Quick one: Population Mitochondria Different-Phenotype (%) for `COc1cc(C(=O)N(CCCc2ccccc2)Cc2ccc(CC(=O)O)cc2)cc(OC)c1C` ?
4

May I ask what Population Mitochondria Different-Phenotype (%) has been recorded for O=S(=O)(c1ccccc1)c1cnc2c(N3CCNCC3)cccc2c1 [INTEPIRDINE] ?
3

For the molecule shown here, CSc1ccccc1N1CCN(CCCCCC(=O)NC2CCCc3ccccc32)CC1.Cl (stereo not given) , give the reported Population Mitochondria Different-Phenotype (%).
71

Where do these numbers come from? They come from ChEMBL document CHEMBL5058577.
